condition.label: 308.15 K; 100 kPa; Liquid; Falling or rolling sphere viscometry
// reported viscosity per item

compound	viscosity / mPa·s
CCCCCCCC(=O)[O-].CN(C)C(=[NH2+])N(C)C [1,1,3,3-tetramethylguanidinium octanoate]	347.6
CCCCCC(=O)[O-].CN(C)C(=[NH2+])N(C)C [1,1,3,3-tetramethylguanidinium hexanoate]	442.1
CCCCC(=O)[O-].CN(C)C(=[NH2+])N(C)C [1,1,3,3-tetramethylguanidinium pentanoate]	382.2
CCCC(=O)[O-].CN(C)C(=[NH2+])N(C)C [1,1,3,3-tetramethylguanidinium butanoate]	694.1
CCCCCCC(=O)[O-].CN(C)C(=[NH2+])N(C)C [1,1,3,3-tetramethylguanidinium heptanoate]	493.9

---

condition.label: 298.15 K; 100 kPa; Liquid; Vibrating tube method

molecule	mass density [kg/m3]
CCCCCCC(=O)[O-].CN(C)C(=[NH2+])N(C)C [1,1,3,3-tetramethylguanidinium heptanoate]	982.69
CCCCC(=O)[O-].CN(C)C(=[NH2+])N(C)C [1,1,3,3-tetramethylguanidinium pentanoate]	1006.9
CCCCCC(=O)[O-].CN(C)C(=[NH2+])N(C)C [1,1,3,3-tetramethylguanidinium hexanoate]	994.1
CCCC(=O)[O-].CN(C)C(=[NH2+])N(C)C [1,1,3,3-tetramethylguanidinium butanoate]	1028.74
CCCCCCCC(=O)[O-].CN(C)C(=[NH2+])N(C)C [1,1,3,3-tetramethylguanidinium octanoate]	965.65

---

// reported mass density per item
condition.label: 313.15 K; 100 kPa; Liquid; Vibrating tube method

molecule	mass density (kg/m3)
CCCCCCCC(=O)[O-].CN(C)C(=[NH2+])N(C)C [1,1,3,3-tetramethylguanidinium octanoate]	955.63
CCCC(=O)[O-].CN(C)C(=[NH2+])N(C)C [1,1,3,3-tetramethylguanidinium butanoate]	1018.24
CCCCC(=O)[O-].CN(C)C(=[NH2+])N(C)C [1,1,3,3-tetramethylguanidinium pentanoate]	996.64
CCCCCCC(=O)[O-].CN(C)C(=[NH2+])N(C)C [1,1,3,3-tetramethylguanidinium heptanoate]	972.09
CCCCCC(=O)[O-].CN(C)C(=[NH2+])N(C)C [1,1,3,3-tetramethylguanidinium hexanoate]	983.73

---

condition.label: 308.15 K; 100 kPa; Liquid; Single path-length method

compound	speed of sound [m/s]
CCCCC(=O)[O-].CN(C)C(=[NH2+])N(C)C [1,1,3,3-tetramethylguanidinium pentanoate]	1492.8
CCCCCC(=O)[O-].CN(C)C(=[NH2+])N(C)C [1,1,3,3-tetramethylguanidinium hexanoate]	1488.8
CCCC(=O)[O-].CN(C)C(=[NH2+])N(C)C [1,1,3,3-tetramethylguanidinium butanoate]	1542.3
CCCCCCC(=O)[O-].CN(C)C(=[NH2+])N(C)C [1,1,3,3-tetramethylguanidinium heptanoate]	1482.5
CCCCCCCC(=O)[O-].CN(C)C(=[NH2+])N(C)C [1,1,3,3-tetramethylguanidinium octanoate]	1449.4

---

condition.label: 308.15 K; 100 kPa; Liquid; Vibrating tube method
// reported mass density per item

molecule	unit.text	mass density
CCCCCC(=O)[O-].CN(C)C(=[NH2+])N(C)C [1,1,3,3-tetramethylguanidinium hexanoate]	kg/m3	987.16
CCCC(=O)[O-].CN(C)C(=[NH2+])N(C)C [1,1,3,3-tetramethylguanidinium butanoate]	kg/m3	1021.74
CCCCCCC(=O)[O-].CN(C)C(=[NH2+])N(C)C [1,1,3,3-tetramethylguanidinium heptanoate]	kg/m3	975.61
CCCCCCCC(=O)[O-].CN(C)C(=[NH2+])N(C)C [1,1,3,3-tetramethylguanidinium octanoate]	kg/m3	958.95
CCCCC(=O)[O-].CN(C)C(=[NH2+])N(C)C [1,1,3,3-tetramethylguanidinium pentanoate]	kg/m3	1000
